Reference for the values: patent US11739098B2

# IC50 per record follows
target: human TLR7 (Homo sapiens, UniProt Q9NYK1); assay: TLR7 inhibition reporter assay (HEK-Blue cells, SEAP reporter, gardiquimod stimulation); conditions: HEK-Blue cells overexpressing human TLR7, SEAP reporter, gardiquimod 7.5 μM
Sequence (Q9NYK1 27-1049): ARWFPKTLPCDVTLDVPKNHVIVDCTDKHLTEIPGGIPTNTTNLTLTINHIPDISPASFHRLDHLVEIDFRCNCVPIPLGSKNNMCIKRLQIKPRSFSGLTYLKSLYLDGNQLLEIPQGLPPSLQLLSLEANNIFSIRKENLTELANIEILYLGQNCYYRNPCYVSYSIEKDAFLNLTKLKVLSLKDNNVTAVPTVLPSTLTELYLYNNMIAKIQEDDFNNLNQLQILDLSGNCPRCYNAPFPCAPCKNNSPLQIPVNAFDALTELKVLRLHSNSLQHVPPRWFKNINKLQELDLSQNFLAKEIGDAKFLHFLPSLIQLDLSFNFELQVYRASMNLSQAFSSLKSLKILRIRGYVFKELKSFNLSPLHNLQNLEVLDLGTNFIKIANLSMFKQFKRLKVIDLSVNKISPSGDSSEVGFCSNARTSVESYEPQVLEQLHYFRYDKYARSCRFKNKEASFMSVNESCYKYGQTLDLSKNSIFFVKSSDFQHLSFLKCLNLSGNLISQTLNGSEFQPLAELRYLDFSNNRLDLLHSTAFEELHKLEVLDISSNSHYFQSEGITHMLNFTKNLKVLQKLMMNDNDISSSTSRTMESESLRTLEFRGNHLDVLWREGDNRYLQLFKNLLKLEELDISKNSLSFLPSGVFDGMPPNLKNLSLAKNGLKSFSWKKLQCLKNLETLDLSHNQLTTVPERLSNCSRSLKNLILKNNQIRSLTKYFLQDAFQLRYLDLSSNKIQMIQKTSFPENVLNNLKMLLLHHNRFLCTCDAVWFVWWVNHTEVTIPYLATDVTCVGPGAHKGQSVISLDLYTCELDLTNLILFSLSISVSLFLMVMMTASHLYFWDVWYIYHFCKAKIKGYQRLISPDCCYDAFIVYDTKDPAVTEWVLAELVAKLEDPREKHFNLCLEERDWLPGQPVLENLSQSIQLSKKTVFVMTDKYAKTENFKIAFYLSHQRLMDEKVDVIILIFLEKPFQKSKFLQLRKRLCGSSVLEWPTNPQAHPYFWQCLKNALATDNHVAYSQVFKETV

compound: Cc1cc(-c2[nH]c3ccc(C4CCNCC4)cc3c2C(C)C)c2[nH]ncc2n1
assayed target: human TLR7 (Homo sapiens, UniProt Q9NYK1)
IC50: < 100 nM

compound: COc1c(C)c(-c2[nH]c3ccc(C4CCN(C5CCOCC5)CC4)cc3c2C(C)C)nn2ncnc12
assayed target: human TLR7 (Homo sapiens, UniProt Q9NYK1)
IC50: < 100 nM

compound: CC(C)c1c(-c2ccnc3[nH]ncc23)[nH]c2cc(Cl)c(C3CCNCC3)cc12
assayed target: human TLR7 (Homo sapiens, UniProt Q9NYK1)
IC50: < 100 nM

compound: CCc1c(-c2ccnc3[nH]ncc23)[nH]c2ccc(C3CCN(Cc4coc(C)n4)CC3)cc12
assayed target: human TLR7 (Homo sapiens, UniProt Q9NYK1)
IC50: 100 to 1000 nM

compound: Cc1cc2ncccc2cc1-c1[nH]c2ccc(C3CCNCC3)cc2c1C(C)C
assayed target: human TLR7 (Homo sapiens, UniProt Q9NYK1)
IC50: < 100 nM

compound: Cc1ccnc2c1c(-c1[nH]c3ccc(C4CCN(CC(=O)N(C)C)CC4)cc3c1C(C)C)cn2C
assayed target: human TLR7 (Homo sapiens, UniProt Q9NYK1)
IC50: < 100 nM

compound: CNCCN1CCC(c2ccc3[nH]c(-c4ccc5nccnc5c4)c(C)c3c2)CC1
assayed target: human TLR7 (Homo sapiens, UniProt Q9NYK1)
IC50: 1000 to 50000 nM

compound: CCc1c(-c2ccnc3nn[nH]c23)[nH]c2ccc(C3CCNCC3)cc12
assayed target: human TLR7 (Homo sapiens, UniProt Q9NYK1)
IC50: 1000 to 50000 nM

compound: CC(C)c1c(-c2ccnc3[nH]ncc23)[nH]c2ccc(C3CCN(C(=O)CCn4ccnc4)CC3)cc12
assayed target: human TLR7 (Homo sapiens, UniProt Q9NYK1)
IC50: < 100 nM

compound: CCc1c(-c2ccnc3[nH]ncc23)[nH]c2ccc(C3CCN(Cc4cc(-c5ccccc5)on4)CC3)cc12
assayed target: human TLR7 (Homo sapiens, UniProt Q9NYK1)
IC50: 1000 to 50000 nM

compound: Cc1cc(-c2[nH]c3ccc(C4CCN(C(=O)CCN5CCOCC5)CC4)cc3c2C(C)C)cn2nnnc12
assayed target: human TLR7 (Homo sapiens, UniProt Q9NYK1)
IC50: < 100 nM

compound: CC(C)c1c(-c2ccn3ncnc3c2)[nH]c2ccc(C3CCNCC3)cc12
assayed target: human TLR7 (Homo sapiens, UniProt Q9NYK1)
IC50: < 100 nM

compound: COCC(CO)N1CCC(c2ccc3[nH]c(-c4cc(C)n5ccnc5c4)c(C(C)C)c3c2)CC1 (stereo not shown)
assayed target: human TLR7 (Homo sapiens, UniProt Q9NYK1)
IC50: 1000 to 50000 nM

compound: CCc1c(-c2ccc3[nH]c(=O)oc3c2)[nH]c2ccc(C3CCNCC3)cc12
assayed target: human TLR7 (Homo sapiens, UniProt Q9NYK1)
IC50: 100 to 1000 nM

compound: CC(C)c1c(-c2cnc3nn(C)cc3c2)[nH]c2ccc(C3CCN(CC(C)(C)O)CC3)cc12
assayed target: human TLR7 (Homo sapiens, UniProt Q9NYK1)
IC50: 100 to 1000 nM

compound: Cc1nc2c(-c3[nH]c4ccc(C5CCN(CC(=O)N(C)C)CC5)cc4c3C(C)C)ccc(C)n2n1
assayed target: human TLR7 (Homo sapiens, UniProt Q9NYK1)
IC50: 1000 to 50000 nM
